Below, each entry is listed alongside its reported TGI.
- Tested on: MDA-MB-231 breast
- PROTOCOL DESCRIPTION: NCI tumour cell line growth inhibition, 48 h
Quick note: give the figure in µM, leave out the unit.

# example entries with known answers
MOLECULE	TGI / µM
CCOC(=O)[C@@H](C)C[C@H](Cc1ccccc1)NC(=O)c1csc([C@@H](C[C@H](C(C)C)N(C)C(=O)[C@H](CC)NC(=O)[C@H]2CCCCN2C)OC(C)=O)n1	0.308
Cc1nc2c(o1)C(=O)c1ccccc1C2=Nc1ccc(N2CCOCC2)cc1	8.84
COc1cnc2c(c1)C(=O)c1c-2n(CCCNC(C)C)c(=O)c2cc(F)ccc12	1.57

Query: Item O=C1OC(c2ccccc2)(c2cc(Br)c(O)c(Br)c2)c2ccccc21 (stereo not given) has what recorded TGI?
Reply: 86.1

---

- System: SN12C renal
- PROTOCOL DESCRIPTION: NCI tumour cell line growth inhibition, 48 h
Reported GI50 values follow for various compounds

COMPOUND	ASSAYED TARGET	PROPERTY	READOUT VALUE
O=S(=O)(Nc1cc(Cl)ccc1Cl)c1ccc(-c2cnc(C3CC3)o2)cc1	SN12C renal	GI50	4.32 µM
C=CN(C)S(C)(=O)=O	SN12C renal	GI50	> 100 µM

Query: Give its GI50 value. Item: O=C(CCC(C(=O)c1ccccc1)c1ccccc1)c1ccccc1 (stereo not drawn)
Reply: 20.2 µM

Query: Look up GI50: `CN(C)CCOC(c1ccccc1)c1ccccc1`
Reply: 34.6 µM

Query: Requested read-out: GI50. Entry: `O=C(Nc1nc2ccc(F)cc2s1)c1cccnc1Nc1ccc(Cl)cc1`
Reply: 2.63 µM

Query: # input compound: `O=C(/C(=C/c1ccc([N+](=O)[O-])cc1)SCc1ccc(F)cc1)c1ccc(Cl)cc1` ; wanted: its GI50
Reply: 6.94 µM

Query: Dear colleague, I am looking for the recorded GI50 of the following compound: `CNC(=O)Oc1cc(C)c(/C=C/c2cncc(C(=O)NC)c2)c(C)c1`
Reply: > 25 µM

Query: Please report the recorded GI50 for CCN(CC)CCCC(C)N=c1cc(Nc2cc(=NC(C)CCCN(CC)CC)c3cc(OC)ccc3o2)oc2ccc(OC)cc12 (stereo not drawn) .
Reply: 1.4 µM

---

- Test system: HCC-2998 colon
- PROTOCOL DESCRIPTION: NCI tumour cell line growth inhibition, 48 h
Quick reference: GI50 of the listed items.

These solved cases illustrate the format of a correct answer.
CHEMICAL STRUCTURE	READOUT VALUE
O=C(NO)c1ccc(Cn2c(=O)n(-c3ccccc3F)c(=O)c3ccccc32)cc1	1420 nM
C[C@H]1[C@H]2[C@H]3CC[C@@H]4[C@@]5(C)C/C(=C/c6cccnc6)C(=O)C(C)(C)[C@@H]5CC[C@@]4(C)[C@]3(C)CC[C@]23CO[C@]1(C)[C@@H](C(=O)/C=C\c1cccnc1)C3	868 nM
O=C(NCc1ccncc1)C12CC3CC(C1)CC(c1ccc(Cl)cc1)(C3)C2	14300 nM
Cc1ccc(-c2nc(N3CCCNCC3)c3oc(-c4ccccc4)nc3n2)cc1	1820 nM

Below: the item to evaluate.
Query: GET /values?readout=GI50&item= `CCCCN(CCCC)CCCn1c(=O)c2c3ccccc3n(C)c2n2nnc(-c3ccccc3)c12`
Reply: 20300 nM
